# ASSAY_EXPLANATION: In vitro rat blood to plasma ratio
# Assay type: in vitro ADME
# TEST_PARAMETERS: 1 μM test compound
Known blood plasma ratio at 1 μM of a selection of compounds
Answer using only a numeral; do not append any unit.

In the examples that follow, each entry is paired with its recorded blood plasma ratio at 1 μM.
>>> df
                                   compound  observed_measurement
0  O=C(NC1CCOCC1)[C@H]1CC12CCN(C(=O)OC(C(F)(F)F)C(F)(F)F)CC2 [Example 8]                  0.96
1  O=C(Nc1cccnc1)[C@H]1CC12CCN(C(=O)OC(C(F)(F)F)C(F)(F)F)CC2 (single isomer, unassigned) [Example 2]                 0.833

State its blood plasma ratio at 1 μM for this compound: O=C(Nc1cccnn1)[C@H]1CC12CCN(C(=O)OC(C(F)(F)F)C(F)(F)F)CC2 [Example 6] 0.72
